FYI, the data here is from the RNAGym collection of RNA variant scans (doi:10.1093/nar/gkz1192).

B1: CPEB3 Ribozyme (parent)
chain: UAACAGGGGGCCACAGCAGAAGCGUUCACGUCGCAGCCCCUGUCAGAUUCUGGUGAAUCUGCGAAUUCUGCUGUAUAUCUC

Variants of: B1
test.name: self-cleavage, relative activity (ratio to wild type); higher = more cleavage; in vitro, sequencing
measured.metric: self-cleavage
Lab note: jot the number down without any unit.

{"primary.sequence": "UAACAGGGGGCCACAGCAGAGGCGUUCACGUCGCAGCCCCUGUCAGAUUCUGGUGAAUCUGCGAAUUCAGCUGUAUAUCUC [A21G U69A]", "self-cleavage": 0.27}
{"primary.sequence": "AAACAGGGGGCCAAAGCAGAAGCGUUCACGUCGCAGCCCCUGUCAGAUUCUGGUGAAUCUGCGAAUUCUGCUGUAUAUCUC [U1A C14A]", "self-cleavage": 1.17}

For reference, reported self-cleavage for UAACAGGGGGACACAGCAGAAGCGUUCGCGUCGCAGCCCCUGUCAGAUUCUGGUGAAUCUGCGAAUUCUGCUGUAUAUCUC [C11A A28G] stands at 0.1

For reference, reported self-cleavage for UAACAGGGGGCCGCAGGAGAAGCGUUCACGUCGCAGCCCCUGUCAGAUUCUGGUGAAUCUGCGAAUUCUGCUGUAUAUCUC [A13G C17G] stands at 0.13

For reference, reported self-cleavage for UAACAGGGGGCCACAGCAGAAGCGUUCACGUCGCAGCCCCUGUCAGACUAUGGUGAAUCUGCGAAUUCUGCUGUAUAUCUC [U48C C50A] stands at 0.25

For reference, reported self-cleavage for UAACAGGGGGCCACAGCAGAAGCGUUCACGUUGCAGCCCCUGUCAGACUCUGGUGAAUCUGCGAAUUCUGCUGUAUAUCUC [C32U U48C] stands at 0.13

For reference, reported self-cleavage for UAACAGGGGGCCACAGCAGCAGCGUUCACGUCGCAGCCCCUGUCAGAUUCUGGUGAAUCUGCGAAUUCUGCUGCAUAUCUC [A20C U74C] stands at 0.46

For reference, reported self-cleavage for UAACAGGGGGCCACAGCAGAAGCGAUCACGUCGCAGCCCAUGUCAGAUUCUGGUGAAUCUGCGAAUUCUGCUGUAUAUCUC [U25A C40A] stands at 0.22

For reference, reported self-cleavage for UAACAGGGGGCCACAGCAGAAGUGUUCACGUCGCAGCCCCUGUCAGAUUCUGGUGAAUCUGCGAAUUCUGCUGUAUAUCUC [C23U] stands at 0.35

For reference, reported self-cleavage for UAACAGGGGGCCCCAGCAGAAGCGUUCACGUCGCGGCCCCUGUCAGAUUCUGGUGAAUCUGCGAAUUCUGCUGUAUAUCUC [A13C A35G] stands at 1.22

For reference, reported self-cleavage for UAACAGGGGGACACAGCAGAAGCAUUCACGUCGCAGCCCCUGUCAGAUUCUGGUGAAUCUGCGAAUUCUGCUGUAUAUCUC [C11A G24A] stands at 0.09

For reference, reported self-cleavage for UAACAGGGGGCCGCAGCAGAAGCGUUCACGUCGCAGCCCCUGUCAGAUUCUGGUGAAUCUGCGAAUUCAGCUGUAUAUCUC [A13G U69A] stands at 0.38

For reference, reported self-cleavage for UAACAGGGGGCCACAGCAGAAGCGUUUACGUCGCAGCCCCUGUCAGAUUCUGGCGAAUCUGCGAAUUCUGCUGUAUAUCUC [C27U U54C] stands at 0.35

For reference, reported self-cleavage for UAACAGGGGGCGACAGCAGAAGCGUUCACGUCGCAGCACCUGUCAGAUUCUGGUGAAUCUGCGAAUUCUGCUGUAUAUCUC [C12G C38A] stands at 0.36

For reference, reported self-cleavage for UAACAGGGGGCCACAGCAGAAGCGUUCACGUCGCAGCCCCUGUCAGAUUAUGGUGAAUCCGCGAAUUCUGCUGUAUAUCUC [C50A U60C] stands at 0.13

For reference, reported self-cleavage for AAACAGGGGGCCACAGCAGAAGCGUUCACGUCGCAGCCCCUGUCAGAUUCUGGUGAAUCUGCGAAUUCUGCUGCAUAUCUC [U1A U74C] stands at 1.18
